experiment: recombinant UMI read abundance after kanamycin selection (control-corrected) (log10(CPM+1)); higher = more efficient recombination; extreme values may be limits of the assay; sequences stand for … in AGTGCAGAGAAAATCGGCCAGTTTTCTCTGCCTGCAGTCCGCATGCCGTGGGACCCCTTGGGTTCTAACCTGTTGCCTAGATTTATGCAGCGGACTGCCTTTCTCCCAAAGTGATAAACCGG…AGGTTGGTTTCACT; site = the 11-nt donor
// map recombinant UMI read abundance (log10) onto a label; ranges class A: < 0.02; class B: ≥ 0.02 and < 1; class C: ≥ 1

Worked set:
[[record]]
seq_string = "CCTCACACATGGACCGGTTTTCCCGGTAATCCGTATTTGTA (site CCTCACACTTA)"
assigned_category = "class B"

[[record]]
seq_string = "CCTTAGACATGGACCGGTTTTCCCGGTAATCCGTATTTGAG (site CATTAGACTCT)"
assigned_category = "class A"

[[record]]
seq_string = "GTTTGGACATGGACCGGTTTTCCCGGTAATCCGTATTTGAC (site GTTTGGACTGT)"
assigned_category = "class C"

[[record]]
seq_string = "CGAGTATCATGGACCGGTTTTCCCGGTAATCCGTATTTGCT (site CGAGTATCTAG)"
assigned_category = "class C"

[[record]]
seq_string = "TGAGAGACATGGACCGGTTTTCCCGGTAATCCGTATTTGCG (site TTAGAGACTCG)"
assigned_category = "class C"

[[record]]
seq_string = "GCGAAGCCATGGACCGGTTTTCCCGGTAATCCGTATTTGGT (site GCGAAGCCTTC)"
assigned_category = "class B"

[[record]]
seq_string = "CTACCTACATGGACCGGTTTTCCCGGTAATCCGTATTTGAG (site CTTCCTACTCT)"
assigned_category = "class A"

[[record]]
seq_string = "GTAGGTACATGGACCGGTTTTCCCGGTAATCCGTATTTGTC (site GTAGGTACTGG)"
assigned_category = "class C"


Problem: // return the class label for TTTACACCATGGACCGGTTTTCCCGGTAATCCGTATTTGAC (site TGTACACCTGT)
Solution: class A

Problem: Hello team, could you let me know which band the following sequence falls into: CTAGCCACATGGACCGGTTTTCCCGGTAATCCGTATTTGGA (site GACCAATCTAA)
Solution: class A

Problem: Determine which band this sequence sits in: ACAGTCACATGGACCGGTTTTCCCGGTAATCCGTATTTGCA (site ACAGTCACTTG)
Solution: class C

Problem: Class for GTATTATCATGGACCGGTTTTCCCGGTAATCCGTATTTGAC (site CTAGTATCTGT) ?
Solution: class C

Problem: Into which category would you place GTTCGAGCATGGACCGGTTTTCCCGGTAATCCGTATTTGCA (site GTTCGAGCTTT) ?
Solution: class B

Problem: Please classify: TCGCCTACATGGACCGGTTTTCCCGGTAATCCGTATTTGTG (site TCGCCTACTCA)
Solution: class A

Problem: Entry TAGCCGTCATGGACCGGTTTTCCCGGTAATCCGTATTTGGT (site TAGCCCTCTAC) belongs to which category?
Solution: class A

Problem: Which recombinant UMI read abundance (log10) band matches CCCATATCATGGACCGGTTTTCCCGGTAATCCGTATTTGTA (site CCCATATCTCA) ?
Solution: class A

Problem: Band of CCTGTATCATGGACCGGTTTTCCCGGTAATCCGTATTTGCA (site CCTGTATCTTG) ?
Solution: class A

Problem: Lab note: which band did GCGTATTCATGGACCGGTTTTCCCGGTAATCCGTATTTGCC (site GCGTATTCTGG) land in?
Solution: class C

Problem: Each sequence maps to one class by recombinant UMI read abundance (log10). Which class for CGAGCAGCATGGACCGGTTTTCCCGGTAATCCGTATTTGCC (site CGAGCAGCTGG) ?
Solution: class C

Problem: Determine which band this sequence sits in: GAAACCACATGGACCGGTTTTCCCGGTAATCCGTATTTGGT (site GAAACCACTAC)
Solution: class B

Problem: Just checking, what class would you give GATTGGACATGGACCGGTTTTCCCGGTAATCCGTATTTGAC (site GATTTGACTGT) here?
Solution: class A

Problem: Note: place this sequence into its band. Item: TACAAACCATGGACCGGTTTTCCCGGTAATCCGTATTTGGT (site TACAAACCTAC)
Solution: class A

Problem: # bin label for CAATGATCATGGACCGGTTTTCCCGGTAATCCGTATTTGAA (site CAATGTTCTTT)
Solution: class B

Problem: Pick a category. Item: CACTCCTCATGGACCGGTTTTCCCGGTAATCCGTATTTGAC (site CACTCCTCTGC)
Solution: class C

Problem: Kindly identify the class of GGTAATCCATGGACCGGTTTTCCCGGTAATCCGTATTTGAA (site GGAAATCCTTT) .
Solution: class A

Problem: Class label required: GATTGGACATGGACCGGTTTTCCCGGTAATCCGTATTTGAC (site GATTGGTCTGT)
Solution: class A

Problem: Where would CCCTAGTCATGGACCGGTTTTCCCGGTAATCCGTATTTGCC (site CCCTAGTCTGG) land among the classes by reported recombinant UMI read abundance (log10)?
Solution: class C

Problem: In plain terms, what class is AGGGAGACATGGACCGGTTTTCCCGGTAATCCGTATTTGTA (site AGGAAGACTTG) ?
Solution: class A

Problem: # bin label for GTAGTATCATGGACCGGTTTTCCCGGTAATCCGTATTTGAC (site TTAGTATCTGT)
Solution: class C

Problem: Textbook exercise: identify the category of the sequence given here, TCCACCGCATGGACCGGTTTTCCCGGTAATCCGTATTTGTG (site TCCACCGCTCA) , according to its measured value.
Solution: class B

====

test: recombinant barcode read abundance after kanamycin selection (control-corrected) (log10(CPM+1)); higher = more efficient recombination; sequences stand for … in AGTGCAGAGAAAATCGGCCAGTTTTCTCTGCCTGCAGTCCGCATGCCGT…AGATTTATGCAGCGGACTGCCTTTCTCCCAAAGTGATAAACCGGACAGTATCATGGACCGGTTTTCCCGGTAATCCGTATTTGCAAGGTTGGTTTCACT; site = the 11-nt target
PROPERTY_NAME: recombinant barcode read abundance (log10)
One number for each entry.

Return reported recombinant barcode read abundance (log10) values for all items listed beneath this line.
1. TAGCATACTTGGGTTCTAACCTGTTGCCC (site TAGCATACTTG)
2. CCTCAATCTTGGGTTCTAACCTGTTGCTT (site CCTCAATCTAA)
3. TAACAGTCTTGGGTTCTAACCTGTTGCGT (site TAACCGTCTAT)
4. GACAAACCTTGGGTTCTAACCTGTTGCGG (site GACACAACTCC)
5. TAGCTCCCTTGGGTTCTAACCTGTTGCCC (site TAGCTCCCTAG)

Solution:
[0.187, 0.224, 0.246, 0.0381, 0.279]

Quick request: recombinant barcode read abundance (log10) for each listed item, please.
1. TAGTTAGCTTGGGTTCTAACCTGTTGCCG (site TAGTTAGCTTG)
2. GGACGGCCTTGGGTTCTAACCTGTTGCGT (site GGACGGCCTAC)
3. CTTGGTTCTTGGGTTCTAACCTGTTGCCT (site CTTGGTTCTAG)
4. GTACGAGCTTGGGTTCTAACCTGTTGCCG (site GTACGAGCTCG)
5. CTATTGTCTTGGGTTCTAACCTGTTGCGG (site CTATTGTCTTC)

Solution:
0.0519
2.53
0.33
0.848
0.17

====

test: recombinant barcode read abundance after kanamycin selection (control-corrected) (log10(CPM+1)); higher = more efficient recombination; sequences stand for … in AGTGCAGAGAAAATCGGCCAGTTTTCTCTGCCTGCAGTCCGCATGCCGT…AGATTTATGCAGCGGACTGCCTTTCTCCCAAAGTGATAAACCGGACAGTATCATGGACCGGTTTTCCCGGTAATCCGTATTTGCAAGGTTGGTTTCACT; site = the 11-nt target
# recombinant barcode read abundance (log10) binned as low range (below 0.3), mid range (0.3 to below 0.8), high range (0.8 or more)

Problem: Could you place GAAATACCTTGGGTTCTAACCTGTTGCGG (site GAAATACCTCC) in its proper category? Many thanks.
Solution: high range

Problem: Which category does the recorded recombinant barcode read abundance (log10) put TACCGGACTTGGGTTCTAACCTGTTGCCT (site TACCGGACTAG) in?
Solution: high range

Problem: Class for AATGGGCCTTGGGTTCTAACCTGTTGCGT (site AATTGGCCTAC) ?
Solution: mid range

Problem: Class for GGGTCTTCTTGGGTTCTAACCTGTTGCAT (site GGGTCTTCTAT) ?
Solution: mid range

Problem: Lab note: sort GGCATGTCTTGGGTTCTAACCTGTTGCCT (site GGCTTGTCTAG) into the matching recombinant barcode read abundance (log10) band.
Solution: low range

Problem: Category lookup for the sequence CCTCTGGCTTGGGTTCTAACCTGTTGCCT (site CCTCTGGCTAG)
Solution: mid range
